# Assay Details: anti-His antibody binders, primary screen, artefact control for SMM control protein annotation, biochemical, small-molecule microarray, 635 nm fluorescence (AID 1128);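 further: score merges feature fluorescence with signal-to-noise for each printed compound spot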
# Applied Conditions: anti-His Alexa647 antibody binding, higher = more signal
Lab note: anything with composite z-score at or over 0.2 counts as 1; the rest go in 0.

INSERT INTO measurements (molecule, assigned_label) VALUES
  ('COc1ccc(CCNC(=O)[C@@]2(Sc3ccc(C)cc3)CC(=O)N(C(C)C)[C@@H]2c2ccc(CO)cc2I)cc1', 1),
  ('COc1ccc(C#Cc2ccc3c(c2)[C@]2(C(=O)N3)[C@H](C(=O)NC[C@H](O)c3ccccc3)[C@H]3C(=O)O[C@H](c4ccccc4)[C@H](c4ccccc4)N3[C@@H]2c2ccc(O)cc2)cc1', 1),
  ('COc1ccccc1CN1C(=O)c2ccccc2[C@@]2(Cc3ccccc3N(CC(C)C)C2=O)[C@@H]1c1ccc(CO)cc1', 0),
  ('CC1CC/C=C\[C@H]2OC34C=CCN(C(C)(C)C)C(=O)[C@H]3N(C(C)CO)C(=O)[C@@H]4C2C(=O)O1 (some centres undefined)', 0),
  ('COC(=O)C[C@H]1O[C@]2(C(=O)N(C)c3ccccc32)[C@@H](C)[C@@H]1[Si](C)(C)F', 0),
  ('COc1ccc(C(=O)Nc2ccc(CN3C(=O)[C@]4(O[C@H](CCO)[C@@H]([Si](C)(C)c5ccc(OC)cc5)[C@@H]4C)c4ccccc43)cc2)cc1', 1),
  ('COc1cc2c(cc1O)C(C1CC1)N(Cc1sc3ccccc3c1Cl)CC2 (centres undefined)', 1),
  ('Cc1ccc(N2C(=O)c3ccccc3[C@@H](C(=O)NC3CC3)[C@@H]2c2ccc(CO)cc2)nc1', 1),
  ('C=C(/C(=C/C[C@H](OC(C)=O)c1ccccc1OCCO)c1cnc2ccccc2c1)C(C)C', 0);
